# Tested on: Glut4
# test description: Glut4 mRNA expression in adipocytes (real-time PCR)
# Format: cell-based, human
# details: Table 18; differentiating adipocytes; control = treatment with ISIS 342673
# Method: Expression of the four hallmark genes, HSL, aP2, Glut4, and PPARγ, is also measured in adipocytes transfected with oligomeric compounds of the invention. Cells are lysed on day nine post-transfection and total RNA is harvested. The amount of total RNA in each sample is determined using a Ribogreen Assay (Invitrogen Life Technologies, Carlsbad, Calif.). […]
In the oligonucleotide strings, read from the 5' end, every base follows the letter of its sugar. An asterisk marks phosphorothioate; unmarked linkages are phosphodiester. Other units and linkages are bracketed, terminal groups are in braces. A string of capitals states the bases alone. e = 2'-O-(2-methoxyethyl) (MOE); [5mC] = 5-methylcytosine
Catalogue of GLUT4 mRNA values

Examples from the recorded data:
342673 (antisense eA*eG*eA*e[5mC]*eT*eA*eG*e[5mC]*eG*eG*eT*eA*eT*e[5mC]*eT*eT*eT*eA*eT*e[5mC]*e[5mC]*e[5mC]) [compound 342673] :: 100 percentage of control
341807 (antisense CTGGGACTTTGTAGGCCAGTT; all 2'-MOE, all phosphorothioate, methylation of C not given here) [compound 341807] :: 119.5 percentage of control

Now consider a different substance.
input: Param item = 328112 (antisense eA*eT*e[5mC]*eA*eT*eT*eA*e[5mC]*eT*eG*eG*eA*eT*eT*eG*e[5mC]*eT*eG*eT*eA*eA) [compound 328112] ; retrieve measured GLUT4 mRNA.
output: 122.5 percentage of control

----------
# Test system: follistatin
# test description: Follistatin mRNA expression in HepG2 cells
# Format: cell-based, human
# details: Experiment 2, insulin treated: HepG2 cells transfected with oligomeric compound, 1 nM insulin for four hours; UTC + 1 nM insulin = 100
In the oligonucleotide strings, read from the 5' end, every base follows the letter of its sugar. An asterisk marks phosphorothioate; unmarked linkages are phosphodiester. Other units and linkages are bracketed, terminal groups are in braces. A string of capitals states the bases alone. e = 2'-O-(2-methoxyethyl) (MOE); [5mC] = 5-methylcytosine; d = 2'-deoxy (DNA)
Catalogue of Follistatin mRNA expression values
Output: the number by itself.

input: Param item = 327963 (antisense eA*eA*e[5mC]*e[5mC]*eT*eA*eT*e[5mC]*e[5mC]*eT*eG*eA*eA*eT*eT*eA*e[5mC]*eT*eT*eG*eA*eA) [compound 327963] ; retrieve measured Follistatin mRNA expression.
output: 95

input: Now consider 328396 (antisense e[5mC]*eT*eG*eG*eT*dT*dG*dG*dG*dT*dA*dT*dG*dA*dG*eA*e[5mC]*eA*eG*eA) [compound 328396] and answer again.
output: 135

input: Now consider 328423 (antisense e[5mC]*e[5mC]*eA*e[5mC]*eA*dT*dA*dT*dA*d[5mC]*dA*dT*dA*dT*dA*eT*eA*e[5mC]*eG*e[5mC]) [compound 328423] and answer again.
output: 114

----------
# System: HeLa cells
# test description: Cell cycle assay in HeLa cells
# Type: cell-based, human
# details: HeLa cells, 150 nM oligomeric compound, 24 hours, relative to untreated control (UTC = 100)
In the oligonucleotide strings, read from the 5' end, every base follows the letter of its sugar. An asterisk marks phosphorothioate; unmarked linkages are phosphodiester. Other units and linkages are bracketed, terminal groups are in braces. A string of capitals states the bases alone. e = 2'-O-(2-methoxyethyl) (MOE); [5mC] = 5-methylcytosine; d = 2'-deoxy (DNA)
Catalogue of % cells in cell cycle phase subG1 values
# number then unit; no other words

Examples from the recorded data:
338833 (antisense TCGTGCACCTGAGGAGTCTG; all 2'-MOE, all phosphorothioate, methylation of C not given here) [compound 338833] :: 232%
338678 (antisense CTGGTTGGGTATGAGACAGA; all 2'-MOE, all phosphorothioate, methylation of C not given here) [compound 338678] :: 162%

input: Param item = 345373 (AGCCTATCCTGGATTACTTGAA; sugars from the 5' end e5 d10 e7, all phosphorothioate, methylation of C not given here) [compound 345373] ; retrieve measured % cells in cell cycle phase subG1.
output: 196%

input: Now consider 327896 (antisense eA*e[5mC]*eA*eG*eT*eT*e[5mC]*eT*eT*e[5mC]*eA*eA*e[5mC]*eT*eG*eG*e[5mC]*eA*eG*e[5mC]*eT*eT) [compound 327896] and answer again.
output: 121%

----------
# Test system: BJ, B16-F10, T47D, T47Dp53 and HeLa cells
# test description: Cell cycle assay (propidium iodide flow cytometry), cell line panel
# Format: cell-based
# details: 150 nM oligomeric compound, 4.5 μg/ml LIPOFECTIN, after 72 hours, propidium iodide flow cytometry
In the oligonucleotide strings, read from the 5' end, every base follows the letter of its sugar. An asterisk marks phosphorothioate; unmarked linkages are phosphodiester. Other units and linkages are bracketed, terminal groups are in braces. A string of capitals states the bases alone. e = 2'-O-(2-methoxyethyl) (MOE); [5mC] = 5-methylcytosine; d = 2'-deoxy (DNA)
Catalogue of aneuploid (percentage of cells) values
Numbers only; they are read as %.

Examples from the recorded data:
340365 (antisense TACTTTATATAGAACACAAG; sugars from the 5' end e5 d10 e5, all phosphorothioate, methylation of C not given here) [compound 340365] :: 18.3
327941 (antisense eA*eA*e[5mC]*e[5mC]*e[5mC]*eA*e[5mC]*e[5mC]*eG*eA*e[5mC]*eA*eG*e[5mC]*eA*eA*eT*eG*eA*eA*eT*eG*eT*eT) [compound 327941] :: 15.8
327919 (antisense eG*eA*eA*eA*e[5mC]*e[5mC]*e[5mC]*eA*eG*e[5mC]*eA*eG*eA*e[5mC]*eA*eA*eT*eG*eT*eA*eG*e[5mC]*eT) [compound 327919] :: 16
327907 (antisense eA*eG*e[5mC]*e[5mC]*eT*eA*eT*e[5mC]*e[5mC]*eT*eG*eG*eA*eT*eT*eA*e[5mC]*eT*eT*eG*eA*eA) [compound 327907] :: 17.8

input: Param item = 327906 (antisense eT*e[5mC]*eA*eT*eA*eG*e[5mC]*e[5mC]*e[5mC]*eT*eG*eT*eA*e[5mC]*eA*eA*eT*eG*e[5mC]*eT*eG*e[5mC]*eT) [compound 327906] ; retrieve measured aneuploid (percentage of cells).
output: 15.8

----------
# Test system: adipocytes
# test description: Triglyceride accumulation assay in adipocytes
# Assay type: cell-based, human
# details: adipocytes, 250 nM oligomeric compound, relative to control (1.0); Table 16
In the oligonucleotide strings, read from the 5' end, every base follows the letter of its sugar. An asterisk marks phosphorothioate; unmarked linkages are phosphodiester. Other units and linkages are bracketed, terminal groups are in braces. A string of capitals states the bases alone. e = 2'-O-(2-methoxyethyl) (MOE); [5mC] = 5-methylcytosine
experimental endpoint: TG (triglyceride accumulation)
Output: the number by itself.

Examples from the recorded data:
327903 (antisense eA*eA*e[5mC]*eT*eA*eT*eA*e[5mC]*eA*eA*e[5mC]*e[5mC]*eT*eA*e[5mC]*eT*eA*e[5mC]*e[5mC]*eT*e[5mC]*eA) [compound 327903] :: 0.58
327941 (antisense eA*eA*e[5mC]*e[5mC]*e[5mC]*eA*e[5mC]*e[5mC]*eG*eA*e[5mC]*eA*eG*e[5mC]*eA*eA*eT*eG*eA*eA*eT*eG*eT*eT) [compound 327941] :: 0.42
327919 (antisense eG*eA*eA*eA*e[5mC]*e[5mC]*e[5mC]*eA*eG*e[5mC]*eA*eG*eA*e[5mC]*eA*eA*eT*eG*eT*eA*eG*e[5mC]*eT) [compound 327919] :: 0.40

input: Param item = 327931 (antisense eA*eA*e[5mC]*e[5mC]*eA*eT*eA*e[5mC]*eA*eA*e[5mC]*e[5mC]*eT*eA*e[5mC]*eT*eA*e[5mC]*e[5mC]*eT*e[5mC]*eA) [compound 327931] ; retrieve measured TG (triglyceride accumulation).
output: 1.11

input: Now consider 327905 (antisense e[5mC]*eA*eG*eA*e[5mC]*eT*e[5mC]*e[5mC]*eG*eG*eT*eG*eG*eA*eA*eT*eG*eA*eA*eG*eG*eA) [compound 327905] and answer again.
output: 0.58

----------
Catalogue of TG (triglyceride accumulation) values
# System: adipocytes
# test description: Triglyceride accumulation assay in adipocytes
# Type: cell-based, human
# details: Table 17; differentiating adipocytes; control = treatment with ISIS 342673
In the oligonucleotide strings, read from the 5' end, every base follows the letter of its sugar. An asterisk marks phosphorothioate; unmarked linkages are phosphodiester. Other units and linkages are bracketed, terminal groups are in braces. A string of capitals states the bases alone. e = 2'-O-(2-methoxyethyl) (MOE); [5mC] = 5-methylcytosine

Examples from the recorded data:
328121 (antisense eA*eT*eG*eA*e[5mC]*eT*eA*e[5mC]*eA*eA*eG*eT*eT*eT*eA*eT*eG*eG*e[5mC]*e[5mC]*eA) [compound 328121] :: 134.8 percentage of control
328138 (eG*eA*eG*e[5mC]*eT*eG*e[5mC]*eT*e[5mC]*eA*eG*e[5mC]*eT*eG*eG*e[5mC]*e[5mC]*eA*eT*e[5mC]*eA; anti-miR) [compound 328138] :: 100.6 percentage of control
328126 (antisense e[5mC]*e[5mC]*eA*eA*eG*eT*eG*eT*eT*eA*eG*eA*eG*e[5mC]*eA*eA*eG*eA*eT*e[5mC]*eA) [compound 328126] :: 98.9 percentage of control

Now consider a different substance.
input: Param item = 328135 (eA*e[5mC]*e[5mC]*eG*eA*eA*e[5mC]*eA*eA*eA*eG*eT*e[5mC]*eT*eG*eA*e[5mC]*eA*eG*eG*eA; anti-miR) [compound 328135] ; retrieve measured TG (triglyceride accumulation).
output: 63.6 percentage of control
